// data source = patent US11111251B2

Would you mind telling me the reported Emax of each entry?
Molecular target: human mAChR M1 (Homo sapiens, UniProt P11229)
Sequence (P11229 1-460): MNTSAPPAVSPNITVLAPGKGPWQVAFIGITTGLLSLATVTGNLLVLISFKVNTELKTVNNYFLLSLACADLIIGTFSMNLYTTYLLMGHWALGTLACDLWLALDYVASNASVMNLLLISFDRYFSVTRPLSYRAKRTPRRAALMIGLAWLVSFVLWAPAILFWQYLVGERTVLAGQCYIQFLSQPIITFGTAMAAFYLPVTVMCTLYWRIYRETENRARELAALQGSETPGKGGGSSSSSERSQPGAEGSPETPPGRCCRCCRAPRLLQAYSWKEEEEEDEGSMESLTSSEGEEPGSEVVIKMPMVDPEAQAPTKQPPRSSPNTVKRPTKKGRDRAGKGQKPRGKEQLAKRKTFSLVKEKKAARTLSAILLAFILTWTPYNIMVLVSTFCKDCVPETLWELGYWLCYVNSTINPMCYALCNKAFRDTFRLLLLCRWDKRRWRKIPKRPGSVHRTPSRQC
Assay: mAChR M1 cell-based functional assay: calcium mobilization, positive allosteric modulator mode (increase in EC20 acetylcholine response)
Conditions: Table 2; human M1; read-out: Human M1 Emax (%)
Give just the numeric value; % need not be written.

Requested field: Emax. Item: CC1CC(NC(=O)c2cc(Cc3ccc(-c4cncs4)cc3)c3sccc3n2)CC(C)O1 (stereo not shown)
73.4

Find the recorded Emax belonging to Cc1ccc(Cc2cc(C(=O)NC3CCCCCC3(C)O)nc3ccsc23)cn1 (stereo not shown) and report it.
71.1

I'd like to know its Emax. The compound in question is O=C(NC1CC(F)(F)C1)c1ccc(Cc2cc(C(=O)NC3CC(F)(F)C3)nc3ccsc23)cc1
45

Name the recorded Emax for Cc1nc(-c2ccc(Cc3cc(C(=O)NC4CC5(COC5)C4)nc4ccsc34)cc2)co1 .
89.7

====

Target: human mAChR M1 (Homo sapiens, UniProt P11229)
Assay: mAChR M1 cell-based functional assay: calcium mobilization, positive allosteric modulator mode (increase in EC20 acetylcholine response)
Details: Table 2; human M1; read-out: Human M1 Emax (%)
Description: a. Cell Lines Expressing Muscarinic Acetylcholine Receptors Chinese hamster ovary (CHO-K1) cells stably expressing rat (r)M1 were purchased from the American Type Culture Collection and cultured according to their indicated protocol. […] Calcium flux was measured using the Functional Drug Screening System (FDSS) 6000 (Hamamatsu Corporation, Tokyo, Japan) as an increase in the fluorescent static ratio. […]
Would you kindly list Emax for each of these molecules?

Find Emax (human mAChR M1 (Homo sapiens, UniProt P11229)) for the entry Cn1cc(-c2ccc(Cc3cc(C(=O)N[C@H]4CCOC[C@@H]4O)nc4ccn(C)c34)cn2)cn1 [Compound 468]
70%

// lookup Emax | system=human mAChR M1 (Homo sapiens, UniProt P11229) | key= CC1CC(NC(=O)c2cc(Cc3ccc(-c4cnn(C)c4)nc3)c3sccc3n2)CC(C)O1 (centres unmarked) [Compound 335]
83.6%

What is its Emax for human mAChR M1 (Homo sapiens, UniProt P11229)? Entry: Cn1cc(-c2ccc(Cc3cc(C(=O)N[C@@H]4CCCC[C@H]4O)nc4ccsc34)cc2)nn1 [Compound 155]
68.7%

API: value(readout= Emax, system= human mAChR M1 (Homo sapiens, UniProt P11229), query= Cc1ccc(Cc2cc(C(=O)NC3CCCCC3)nc3c(C)csc23)cn1 [Compound 101] )
75.7%

Query for human mAChR M1 (Homo sapiens, UniProt P11229): what Emax does the record show for Cn1ccc(-c2ccc(Cc3cc(C(=O)NC4CCOCC4)nc4ccsc34)cn2)n1 [Compound 350] ?
70.5%

Form entry - test system: human mAChR M1 (Homo sapiens, UniProt P11229); read-out: Emax; molecule: Cc1nc(-c2ccc(Cc3cc(C(=O)NC4CCN5CCCC45)nc4ccsc34)cc2)cs1 (centres unmarked) [Compound 197]
80.8%

Param readout = Emax; param system = human mAChR M1 (Homo sapiens, UniProt P11229); param query = O=C(N[C@@H]1CCCC[C@H]1O)c1cc(Cc2ccc(-n3cccn3)cc2)c2sccc2n1 [Compound 73] ; response: value
87.9%

Checklist item: Emax tested on human mAChR M1 (Homo sapiens, UniProt P11229), entry CC1(O)CCN(C(=O)c2cc(Cc3ccc(-n4cccn4)cc3)c3sccc3n2)CC1 [Compound 82] , value?
70.4%

Entry O=C(N[C@H]1CCC[C@@H]1O)c1cc(Cc2ccc(-c3cscn3)cc2)c2sccc2n1 [Compound 206] , system human mAChR M1 (Homo sapiens, UniProt P11229): what Emax was measured?
87%

Short answer please: Emax, human mAChR M1 (Homo sapiens, UniProt P11229), entry Cn1ccc2nc(C(=O)N[C@H]3CCCOC3)cc(Cc3ccc(-c4cscn4)cc3)c21 [Compound 462]
67.9%

Reported Emax for human mAChR M1 (Homo sapiens, UniProt P11229), given Cn1ccc(-c2ccc(Cc3cc(C(=O)NC4CC(F)C4)nc4ccn(C)c34)cn2)n1 (centres unmarked) [Compound 510] ?
76.8%

Missing value: Emax, human mAChR M1 (Homo sapiens, UniProt P11229), entry Cn1cc(-c2ccc(Cc3cc(C(=O)N[C@@H]4CCOC4)nc4ccsc34)cc2)nn1 [Compound 150] . Fill in?
88.5%

Which measured Emax belongs to O=C(NC1CCOCC1)c1cc(Cc2ccc(-c3nccs3)cc2)c2sccc2n1 [Compound 296] , tested on human mAChR M1 (Homo sapiens, UniProt P11229)?
79.9%

For the record Cn1ccc(-c2ccc(Cc3cc(C(=O)NC4CC(F)(F)C4)nc4ccn(C)c34)cn2)n1 [Compound 511] , what value of Emax is listed for human mAChR M1 (Homo sapiens, UniProt P11229)?
66.1%

Which measured Emax belongs to CC1(NC(=O)c2cc(Cc3ccc(-n4cccn4)cc3)c3sccc3n2)COC1 [Compound 276] , tested on human mAChR M1 (Homo sapiens, UniProt P11229)?
64.5%

Given the entry Cc1ncc(Cc2cc(C(=O)N[C@H]3CC[C@@H]3O)nc3ccsc23)s1 [Compound 132] , what Emax was observed with human mAChR M1 (Homo sapiens, UniProt P11229)?
54.9%

API: value(readout= Emax, system= human mAChR M1 (Homo sapiens, UniProt P11229), query= COCCNC(=O)c1cc(Cc2ccc(-c3cnn(C)c3)nc2)c2sccc2n1 [Compound 342] )
89.5%

Notebook: pull reported Emax for human mAChR M1 (Homo sapiens, UniProt P11229), entry Cc1nc(-c2ccc(Cc3cc(C(=O)N[C@@H]4CC[C@H]4O)nc4ccsc34)cc2)cs1 [Compound 176]
93.2%

Return Emax measured with human mAChR M1 (Homo sapiens, UniProt P11229) given this molecule: O=C(NC[C@H]1CCCO1)c1cc(Cc2ccc(-n3cccn3)cc2)c2sccc2n1 [Compound 287]
64.9%

Please state recorded Emax (tested on human mAChR M1 (Homo sapiens, UniProt P11229)) of Cc1nn(C)cc1-c1ccc(Cc2cc(C(=O)NC3CN(C(C)(C)C)C3)nc3ccsc23)cc1 [Compound 245]
16.2%

Could you share what Emax was measured for Cc1ccc(Cc2cc(C(=O)N[C@@H]3CCOC[C@H]3O)nc3c(C)csc23)cn1 [Compound 104] , tested on human mAChR M1 (Homo sapiens, UniProt P11229)?
86.8%

Given the entry O=C(N[C@@H]1CCOC1)c1cc(Cc2ccc(-c3nccs3)cc2)c2sccc2n1 [Compound 368] , what Emax was observed with human mAChR M1 (Homo sapiens, UniProt P11229)?
65.6%

Recorded Emax for O=C(NCC1CCCCO1)c1cc(Cc2ccc(-c3nccs3)cc2)c2sccc2n1 (centres unmarked) [Compound 375] with human mAChR M1 (Homo sapiens, UniProt P11229), please?
77.4%

Emax of Cn1cc(-c2cc(F)c(Cc3cc(C(=O)N[C@H]4CCCCC[C@@H]4O)nc4ccsc34)c(F)c2)cn1 [Compound 61] on human mAChR M1 (Homo sapiens, UniProt P11229)?
64.8%

Identify the measured Emax of Cn1cc(-c2ccc(Cc3cc(C(=O)NC4CC(F)C4)nc4ccsc34)cn2)cn1 (centres unmarked) [Compound 346] for human mAChR M1 (Homo sapiens, UniProt P11229).
89.4%

Reported Emax for human mAChR M1 (Homo sapiens, UniProt P11229), given Cn1ccc(-c2ccc(Cc3cc(C(=O)NC4CC5(COC5)C4)nc4ccn(C)c34)cc2)n1 [Compound 475] ?
83.5%

Request - read-out Emax | tested on human mAChR M1 (Homo sapiens, UniProt P11229) | molecule CCN1CCC[C@H]1CNC(=O)c1cc(Cc2ccc(-c3ccn(C)n3)nc2)c2sccc2n1 [Compound 428]
70.2%

Please provide the recorded Emax for Cn1ncc2nc(C(=O)N[C@H]3CCOC[C@@H]3O)cc(Cc3ccc(-n4cccn4)cc3)c21 [Compound 499] , tested on human mAChR M1 (Homo sapiens, UniProt P11229).
65.3%

Under human mAChR M1 (Homo sapiens, UniProt P11229): Emax value of Cc1cc2nc(C(=O)N[C@H]3CCC[C@@H]3O)cc(Cc3ccc(-n4cccn4)cc3)c2s1 [Compound 236] ?
78.2%

Record Cn1ccc(-c2ccc(Cc3cc(C(=O)NC4COC4)nc4ccsc34)cn2)n1 [Compound 415] : what is its Emax with human mAChR M1 (Homo sapiens, UniProt P11229)?
63%

API: value(readout= Emax, system= human mAChR M1 (Homo sapiens, UniProt P11229), query= Cc1ccc(Cc2cc(C(=O)NC3CC4(COC4)C3)nc3ccsc23)cn1 [Compound 261] )
52.8%

Please provide the recorded Emax for Cn1ccc(-c2ccc(Cc3cc(C(=O)NC4CCOCC4(C)C)nc4ccn(C)c34)cc2)n1 (centres unmarked) [Compound 477] , tested on human mAChR M1 (Homo sapiens, UniProt P11229).
86.4%
